Biological target: IGF2 (Homo sapiens, UniProt P01344)
Sequence (P01344 25-91): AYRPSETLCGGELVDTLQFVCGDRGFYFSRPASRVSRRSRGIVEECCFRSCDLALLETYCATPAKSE
Assay: SPR (Biacore T200) of recombinant IGF2R domain 11 mutants on immobilised biotinylated IGF2
Assay type: binding
Parameters: purchased GroPep
Conditions: Table 3; 25° C., HBS-EP pH 7.4
Experimental: Surface plasmon resonance (SPR) binding analysis of recombinant M6P/IGF2R domain 11 mutants interaction with IGF2. Kon indicates association (on) rate; koff, dissociation (off) rate; RU, response units. Binding to IGF2 assessed with BIAcore T200 using purified biotinylated IGF2 and IGF1 on a streptavidin biosensor chip. […] All experiments were carried out at 25° C. in HBS-EP buffer (pH 7.4), were repeated 2-5 times on two independent BIAcore chips. nd=not determined. […]
# Kinetics kon values compiled below

molecule: AB3 P1597K S1602H: domain 11 AB3 + P1597K, S1602H (protein) MKSNEHDDCQVTNPSTGHLFDLSSLSGRAGFTAAYSKSGVVYMSICGENENCPPGVGACFGQTRISVGKANKRLRYVDQVLQLVYKDGSKCPSKHGLSYKSVISFVCRPEAGPTNRPMLISLDKQTCTLFFSWHTPLACEQATECSV
Kinetics kon (M⁻¹ s⁻¹): 2.74e+06
//
molecule: AB3 Q1569R P1597K S1602H: domain 11 AB3 + Q1569R, P1597K, S1602H (protein) MKSNEHDDCQVTNPSTGHLFDLSSLSGRAGFTAAYSKSGVVYMSICGENENCPPGVGACFGRTRISVGKANKRLRYVDQVLQLVYKDGSKCPSKHGLSYKSVISFVCRPEAGPTNRPMLISLDKQTCTLFFSWHTPLACEQATECSV
Kinetics kon (M⁻¹ s⁻¹): 2.01e+07
//
molecule: AB3 Q1569R P1597K: domain 11 AB3 + Q1569R, P1597K (protein) MKSNEHDDCQVTNPSTGHLFDLSSLSGRAGFTAAYSKSGVVYMSICGENENCPPGVGACFGRTRISVGKANKRLRYVDQVLQLVYKDGSKCPSKSGLSYKSVISFVCRPEAGPTNRPMLISLDKQTCTLFFSWHTPLACEQATECSV
Kinetics kon (M⁻¹ s⁻¹): 2e+07
//
molecule: AB5 P1597L: domain 11 AB5 + P1597L (protein) MKSNEHDDCQVTNPSTGHLFDLSSLSGRAGFTAAYAKGWGVYMSICGENENCPPGVGACFGQTRISVGKANKRLRYVDQVLQLVYKDGSLCPSKSGLSYKSVISFVCRPEAGPTNRPMLISLDKQTCTLFFSWHTPLACEQATECSV
Kinetics kon (M⁻¹ s⁻¹): 4.18e+06
//
molecule: AB3: IGF2R domain 11 with AB loop mutations E1544K, K1545S, L1547V (YSKSGV) (protein) MKSNEHDDCQVTNPSTGHLFDLSSLSGRAGFTAAYSKSGVVYMSICGENENCPPGVGACFGQTRISVGKANKRLRYVDQVLQLVYKDGSPCPSKSGLSYKSVISFVCRPEAGPTNRPMLISLDKQTCTLFFSWHTPLACEQATECSV
Kinetics kon (M⁻¹ s⁻¹): 2.76e+06
//
molecule: AB5 P1597A: domain 11 AB5 + P1597A (protein) MKSNEHDDCQVTNPSTGHLFDLSSLSGRAGFTAAYAKGWGVYMSICGENENCPPGVGACFGQTRISVGKANKRLRYVDQVLQLVYKDGSACPSKSGLSYKSVISFVCRPEAGPTNRPMLISLDKQTCTLFFSWHTPLACEQATECSV
Kinetics kon (M⁻¹ s⁻¹): 1.9e+06
